# Tested on: PC-14
# experimental_details: relative viability (nuclei count vs DMSO), 5 days (fraction); higher = more cells survive
# reported_conditions: first compound 0.03162 µM
value_kind: relative viability
Returns: the value as a bare number; no unit string appended.

Please review the following examples before continuing.
CC(C)Oc1cc(Nc2nc(N[C@@H](C)c3ccc(F)cn3)ncc2Cl)n[nH]1 [AZ23] + Cc1nc(Nc2ncc(C(=O)Nc3c(C)cccc3Cl)s2)cc(N2CCN(CCO)CC2)n1 [Dasatinib] (partner 0.075 µM)	0.273
CC(C)Oc1cc(Nc2nc(N[C@@H](C)c3ccc(F)cn3)ncc2Cl)n[nH]1 [AZ23] + CC(=O)c1c(C)c2cnc(Nc3ccc(N4CCNCC4)cn3)nc2n(C2CCCC2)c1=O [Palbociclib] (partner 0.5 µM)	0.567

Shifting focus to the compound that follows.
[in] // query relative viability value for entry CC(C)Oc1cc(Nc2nc(N[C@@H](C)c3ccc(F)cn3)ncc2Cl)n[nH]1 [AZ23] + Cc1cc(Nc2cc(N3CCN(C)CC3)nc(Sc3ccc(NC(=O)C4CC4)cc3)n2)n[nH]1 [Tozasertib] (partner 0.1 µM)
[out] 0.656

====

# Tested on: NCI-H322M
# experimental_details: relative viability (nuclei count vs DMSO), 5 days (fraction); higher = more cells survive
# reported_conditions: first compound 1.265 µM
value_kind: relative viability
Returns: the value as a bare number; no unit string appended.

[in] // query relative viability value for entry COc1cc(N2CCC(C(N)=O)CC2)ccc1Nc1nc(N)c(Cl)c(Nc2ccccc2S(=O)(=O)C(C)C)n1 [HG-5-88-01] + C[C@]1(O)C[C@@H](c2nc(-c3ccc4ccc(-c5ccccc5)nc4c3)c3c(N)nccn32)C1 [Linsitinib] (partner 1 µM)
[out] 0.657

[in] Consider next the compound Clc1ccc(Nc2nnc(Cc3ccncc3)c3ccccc23)cc1 [Vatalanib] + N=C(N)NC(=N)NCCc1ccccc1 [Phenformin] (partner 250 µM) in the same way.
[out] 0.685

[in] Consider next the compound Clc1ccc(Nc2nnc(Cc3ccncc3)c3ccccc23)cc1 [Vatalanib] + Cc1cc(Nc2cc(N3CCN(C)CC3)nc(Sc3ccc(NC(=O)C4CC4)cc3)n2)n[nH]1 [Tozasertib] (partner 0.1 µM) in the same way.
[out] 0.479

[in] Consider next the compound COc1cc(N2CCC(C(N)=O)CC2)ccc1Nc1nc(N)c(Cl)c(Nc2ccccc2S(=O)(=O)C(C)C)n1 [HG-5-88-01] + CS(=O)(=O)CCNCc1ccc(-c2ccc3ncnc(Nc4ccc(OCc5cccc(F)c5)c(Cl)c4)c3c2)o1 [Lapatinib] (partner 2 µM) in the same way.
[out] 0.501

====

Below, each of the compounds is paired with its reported relative viability value.
# Tested on: NCI-H1755
# experimental_details: relative viability (nuclei count vs DMSO), 5 days (fraction); higher = more cells survive
# reported_conditions: first compound 0.4 µM
Returns: the value as a bare number; no unit string appended.

C[C@@H]1CN(CC(=O)Nc2ccc3c(c2)Cc2cccc(-c4cc(=O)cc(N5CCOCC5)o4)c2S3)C[C@H](C)O1 + Cc1nc(Nc2ncc(C(=O)Nc3c(C)cccc3Cl)s2)cc(N2CCN(CCO)CC2)n1 [Dasatinib] (partner 0.075 µM)	0.427

[in] // query relative viability value for entry COc1cc(N2CCC(C(N)=O)CC2)ccc1Nc1nc(N)c(Cl)c(Nc2ccccc2S(=O)(=O)C(C)C)n1 [HG-5-88-01] + COc1cccc2cc(-c3nc([C@H]4CC[C@H](C(=O)O)CC4)n4ncnc(N)c34)[nH]c12 [OSI-027] (partner 0.5 µM)
[out] 0.677

====

# Tested on: NCI-H520
# experimental_details: relative viability (nuclei count vs DMSO), 5 days (fraction); higher = more cells survive
# reported_conditions: first compound 0.04 µM
value_kind: relative viability
Returns: the value as a bare number; no unit string appended.

[in] // query relative viability value for entry COc1cc(N2CCC(C(N)=O)CC2)ccc1Nc1nc(N)c(Cl)c(Nc2ccccc2S(=O)(=O)C(C)C)n1 [HG-5-88-01] + O=C(CCCCCCC(=O)Nc1ccccc1)NO [Vorinostat] (partner 1 µM)
[out] 0.747

[in] Consider next the compound Clc1ccc(Nc2nnc(Cc3ccncc3)c3ccccc23)cc1 [Vatalanib] + Nc1nc2[nH]cc(CCc3ccc(C(=O)N[C@@H](CCC(=O)O)C(=O)O)cc3)c2c(=O)[nH]1 [Pemetrexed] (partner 0.2 µM) in the same way.
[out] 0.676

[in] Consider next the compound C[C@@H]1CN(CC(=O)Nc2ccc3c(c2)Cc2cccc(-c4cc(=O)cc(N5CCOCC5)o4)c2S3)C[C@H](C)O1 + C[C@@H](Oc1cc(-c2cnn(C3CCNCC3)c2)cnc1N)c1c(Cl)ccc(F)c1Cl [Crizotinib] (partner 1 µM) in the same way.
[out] 0.64

====

# Tested on: EPLC-272H
# experimental_details: relative viability (nuclei count vs DMSO), 5 days (fraction); higher = more cells survive
# reported_conditions: first compound 0.04 µM
value_kind: relative viability
Returns: the value as a bare number; no unit string appended.

[in] // query relative viability value for entry COc1cc(N2CCC(C(N)=O)CC2)ccc1Nc1nc(N)c(Cl)c(Nc2ccccc2S(=O)(=O)C(C)C)n1 [HG-5-88-01] + C[C@@H](Oc1cc(-c2cnn(C3CCNCC3)c2)cnc1N)c1c(Cl)ccc(F)c1Cl [Crizotinib] (partner 1 µM)
[out] 0.972

====

# Test system: LXF-289
# experimental_details: relative viability (nuclei count vs DMSO), 5 days (fraction); higher = more cells survive
# reported_conditions: first compound 0.3162 µM
Binary call on relative viability with cut-off 0.6: strictly below means Met, and equality or higher means Not met.

CC(C)Oc1cc(Nc2nc(N[C@@H](C)c3ccc(F)cn3)ncc2Cl)n[nH]1 [AZ23] + NC(=O)Nc1cc(-c2cccc(F)c2)sc1C(=O)N[C@H]1CCCNC1 [AZD7762] (partner 0.2 µM)	Not met
CC(C)Oc1cc(Nc2nc(N[C@@H](C)c3ccc(F)cn3)ncc2Cl)n[nH]1 [AZ23] + COc1cccc2cc(-c3nc([C@H]4CC[C@H](C(=O)O)CC4)n4ncnc(N)c34)[nH]c12 [OSI-027] (partner 0.5 µM)	Not met
CC(C)Oc1cc(Nc2nc(N[C@@H](C)c3ccc(F)cn3)ncc2Cl)n[nH]1 [AZ23] + N=C(N)NC(=N)NCCc1ccccc1 [Phenformin] (partner 250 µM)	Met

Query compound follows.
[in] Is relative viability strictly under 0.6 for the entry CC(C)Oc1cc(Nc2nc(N[C@@H](C)c3ccc(F)cn3)ncc2Cl)n[nH]1 [AZ23] + Nc1ncn([C@H]2C[C@H](O)[C@@H](CO)O2)c(=O)n1 [Decitabine] (partner 2 µM) ?
[out] Met

====

# Test system: NCI-H838
# experimental_details: relative viability (nuclei count vs DMSO), 5 days (fraction); higher = more cells survive
# reported_conditions: first compound 0.4 µM
Binary call on relative viability with cut-off 0.9: strictly below means Condition met, and equality or higher means Condition not met.

Answered examples (5):
COc1cc(N2CCC(C(N)=O)CC2)ccc1Nc1nc(N)c(Cl)c(Nc2ccccc2S(=O)(=O)C(C)C)n1 [HG-5-88-01] + Cc1nc(Nc2ncc(C(=O)Nc3c(C)cccc3Cl)s2)cc(N2CCN(CCO)CC2)n1 [Dasatinib] (partner 0.075 µM)	Condition met
Clc1ccc(Nc2nnc(Cc3ccncc3)c3ccccc23)cc1 [Vatalanib] + Cc1nc(NC(=O)N2CCC[C@H]2C(N)=O)sc1-c1ccnc(C(C)(C)C(F)(F)F)c1 [Alpelisib] (partner 2 µM)	Condition not met
Clc1ccc(Nc2nnc(Cc3ccncc3)c3ccccc23)cc1 [Vatalanib] + CS(=O)(=O)CCNCc1ccc(-c2ccc3ncnc(Nc4ccc(OCc5cccc(F)c5)c(Cl)c4)c3c2)o1 [Lapatinib] (partner 2 µM)	Condition not met
COc1cc(N2CCC(C(N)=O)CC2)ccc1Nc1nc(N)c(Cl)c(Nc2ccccc2S(=O)(=O)C(C)C)n1 [HG-5-88-01] + Nc1nc2[nH]cc(CCc3ccc(C(=O)N[C@@H](CCC(=O)O)C(=O)O)cc3)c2c(=O)[nH]1 [Pemetrexed] (partner 0.2 µM)	Condition met
C[C@@H]1CN(CC(=O)Nc2ccc3c(c2)Cc2cccc(-c4cc(=O)cc(N5CCOCC5)o4)c2S3)C[C@H](C)O1 + C[C@]1(O)C[C@@H](c2nc(-c3ccc4ccc(-c5ccccc5)nc4c3)c3c(N)nccn32)C1 [Linsitinib] (partner 1 µM)	Condition met

Query compound follows.
[in] Is relative viability strictly under 0.9 for the entry COc1cc(N2CCC(C(N)=O)CC2)ccc1Nc1nc(N)c(Cl)c(Nc2ccccc2S(=O)(=O)C(C)C)n1 [HG-5-88-01] + Nc1ncn([C@H]2C[C@H](O)[C@@H](CO)O2)c(=O)n1 [Decitabine] (partner 2 µM) ?
[out] Condition met

====

Below, each of the molecules is paired with its reported relative viability value.
# Tested on: NCI-H322M
# experimental_details: relative viability (nuclei count vs DMSO), 5 days (fraction); higher = more cells survive
# reported_conditions: first compound 1.265 µM

Please review the following examples before continuing.
Clc1ccc(Nc2nnc(Cc3ccncc3)c3ccccc23)cc1 [Vatalanib] + C[C@]1(O)C[C@@H](c2nc(-c3ccc4ccc(-c5ccccc5)nc4c3)c3c(N)nccn32)C1 [Linsitinib] (partner 1 µM)	0.959
Clc1ccc(Nc2nnc(Cc3ccncc3)c3ccccc23)cc1 [Vatalanib] + COc1cc2c(Oc3ccc(NC(=O)C4(C(=O)Nc5ccc(F)cc5)CC4)cc3F)ccnc2cc1OCCCN1CCOCC1 [Foretinib] (partner 0.25 µM)	0.878

[in] // query relative viability value for entry COc1cc(N2CCC(C(N)=O)CC2)ccc1Nc1nc(N)c(Cl)c(Nc2ccccc2S(=O)(=O)C(C)C)n1 [HG-5-88-01] + CC(=O)Nc1cccc(-n2c(=O)n(C3CC3)c(=O)c3c(Nc4ccc(I)cc4F)n(C)c(=O)c(C)c32)c1 [Trametinib] (partner 0.02 µM)
[out] 0.36

[in] Consider next the molecule Clc1ccc(Nc2nnc(Cc3ccncc3)c3ccccc23)cc1 [Vatalanib] + Cc1nc(Nc2ncc(C(=O)Nc3c(C)cccc3Cl)s2)cc(N2CCN(CCO)CC2)n1 [Dasatinib] (partner 0.075 µM) in the same way.
[out] 0.247

src = the supplement of paper PMC10307832
